As an illustration, consider measured pKi for compounds on Apoptosis regulator Bcl-2 (Homo sapiens, UniProt P10415).
Sequence (P10415 whole entry): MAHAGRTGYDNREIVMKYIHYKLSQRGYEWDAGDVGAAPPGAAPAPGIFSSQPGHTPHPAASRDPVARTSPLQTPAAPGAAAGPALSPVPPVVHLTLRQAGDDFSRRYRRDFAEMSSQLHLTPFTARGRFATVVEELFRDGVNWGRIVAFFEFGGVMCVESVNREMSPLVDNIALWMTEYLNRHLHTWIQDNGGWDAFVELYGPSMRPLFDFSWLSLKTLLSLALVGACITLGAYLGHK
Entry type: numeric. Quantity: pKi, the -log10 of concentration in molar units.

Input line: Provide Apoptosis regulator Bcl-2 (Homo sapiens, UniProt P10415) pKi reading for O=C(NS(=O)(=O)c1ccc(Cl)c([N+](=O)[O-])c1)[C@@H]1Cc2cc(Br)c(OCc3ccc(-c4ccccc4)cc3)c(Br)c2CC1Cc1ccc([N+](=O)[O-])cc1 (some centres not stated) .
Output line: 6.39

Input line: Provide Apoptosis regulator Bcl-2 (Homo sapiens, UniProt P10415) pKi reading for N#Cc1ccc(CC2Cc3c(cc(Br)c(OCc4ccc(-c5ccccc5)cc4)c3Br)C[C@H]2C(=O)NS(=O)(=O)c2ccc(Cl)c([N+](=O)[O-])c2)cc1 (some centres not stated) .
Output line: 6.35

###

pKi: −log10 of the molar value.
observed-property: pKi

Input line: Provide Carbonic anhydrase 1 (Homo sapiens, UniProt P00915) pKi reading for COc1cc(C2CC(c3ccc(F)cc3)=NN2c2ccc(S(N)(=O)=O)cc2)cc(OC)c1OC (configuration not stated) .
Output line: ≤ 6.64

Input line: Provide Carbonic anhydrase 1 (Homo sapiens, UniProt P00915) pKi reading for COc1cc(C2CC(c3cccs3)=NN2c2ccc(S(N)(=O)=O)cc2)cc(OC)c1OC (configuration not stated) .
Output line: ≤ 6.64

###

test-system: DNA topoisomerase 1 (Homo sapiens)
Sequence (P11387 whole entry): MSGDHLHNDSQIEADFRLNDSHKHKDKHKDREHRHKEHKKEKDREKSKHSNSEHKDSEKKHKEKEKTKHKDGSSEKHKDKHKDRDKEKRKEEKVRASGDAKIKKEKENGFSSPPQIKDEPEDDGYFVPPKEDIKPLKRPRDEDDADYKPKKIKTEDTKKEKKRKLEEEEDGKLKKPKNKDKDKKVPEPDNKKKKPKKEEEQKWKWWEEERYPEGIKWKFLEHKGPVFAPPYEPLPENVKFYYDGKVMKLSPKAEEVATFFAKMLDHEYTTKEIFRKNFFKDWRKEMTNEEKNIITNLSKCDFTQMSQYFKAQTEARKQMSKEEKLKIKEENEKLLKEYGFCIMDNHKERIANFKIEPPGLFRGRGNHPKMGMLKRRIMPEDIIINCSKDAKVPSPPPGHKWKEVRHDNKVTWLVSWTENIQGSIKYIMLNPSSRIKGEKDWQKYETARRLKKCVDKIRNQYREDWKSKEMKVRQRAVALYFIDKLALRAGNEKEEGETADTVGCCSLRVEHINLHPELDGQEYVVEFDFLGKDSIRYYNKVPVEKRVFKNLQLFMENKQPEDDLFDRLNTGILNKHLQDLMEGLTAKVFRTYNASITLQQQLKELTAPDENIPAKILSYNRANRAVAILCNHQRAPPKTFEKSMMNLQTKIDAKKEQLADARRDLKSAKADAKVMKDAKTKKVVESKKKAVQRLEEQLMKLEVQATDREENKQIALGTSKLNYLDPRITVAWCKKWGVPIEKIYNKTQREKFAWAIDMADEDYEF
experimental-protocol: Inhibition of topoisomerase 1 (unknown origin) assessed as relaxation of supercoiled […] incubated for 30 mins ethidium bromide staining based UV transilluminator analysis
observed-property: pIC50
Entry type: numeric. Quantity: pIC50, the -log10 of concentration in molar units.

Input line: Specify reported pIC50 for the compound shown: CC1CCN(S(=O)(=O)c2ccc(-c3ccno3)cc2)CC1
Output line: 4.56
